assay-remarks: inhibition of 3D7 malaria parasite growth – strain 3D7 (AID 2306);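 note: 0% = DMSO wells and 100% = chloroquine plus artemisinin control wells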
stated-conditions: P. falciparum 3D7 erythrocytic growth, LDH absorbance, 72 h; at 2 µM; stronger effect = higher value
Reported growth inhibition values for the following molecules.
Numbers only here, please. The scale is %.

Study these solved cases before continuing.
CC[C@H](C)CNCc1ccc(OCc2cccc(COc3ccc(CNC[C@@H](C)CC)cc3I)c2)c(I)c1 | 99
CCCCCOc1ccc(C(O)C(CCC(CN2CCCCCC2)C(O)c2ccc(OCCCCC)cc2)CN2CCCCCC2)cc1 (configuration not stated) | 99
Cc1cc(NC(=O)c2ccc(S(=O)(=O)N(Cc3ccccc3)C(C)C)cc2)no1 | 87
COc1cc(C)nc2ccc(NC(=O)Nc3ccc4nc(C)cc(OC)c4c3)cc12 | 102
CCCS(=O)(=O)c1nc(S(=O)(=O)c2ccc(Cl)cc2)c(N2CCCCC2)s1 | 87
CNC(=O)c1cnc(Nc2ccc(N3CCOCC3)cc2)nc1Nc1cccc(OC)c1 | 96

Moving on to another molecule below.
Input line: Find the recorded growth inhibition belonging to CCN(CC)c1ccc(C(=O)Cn2ccc(=N)cc2)cc1 and report it.
Output line: 84

Data origin: PubChem BioAssay
